experimental-system: T1, EsCas13d, nuclease-dead (Eubacterium siraeum, UniProt B0MS50, R295A;H300A;R849A;H854A)
T1 sequence: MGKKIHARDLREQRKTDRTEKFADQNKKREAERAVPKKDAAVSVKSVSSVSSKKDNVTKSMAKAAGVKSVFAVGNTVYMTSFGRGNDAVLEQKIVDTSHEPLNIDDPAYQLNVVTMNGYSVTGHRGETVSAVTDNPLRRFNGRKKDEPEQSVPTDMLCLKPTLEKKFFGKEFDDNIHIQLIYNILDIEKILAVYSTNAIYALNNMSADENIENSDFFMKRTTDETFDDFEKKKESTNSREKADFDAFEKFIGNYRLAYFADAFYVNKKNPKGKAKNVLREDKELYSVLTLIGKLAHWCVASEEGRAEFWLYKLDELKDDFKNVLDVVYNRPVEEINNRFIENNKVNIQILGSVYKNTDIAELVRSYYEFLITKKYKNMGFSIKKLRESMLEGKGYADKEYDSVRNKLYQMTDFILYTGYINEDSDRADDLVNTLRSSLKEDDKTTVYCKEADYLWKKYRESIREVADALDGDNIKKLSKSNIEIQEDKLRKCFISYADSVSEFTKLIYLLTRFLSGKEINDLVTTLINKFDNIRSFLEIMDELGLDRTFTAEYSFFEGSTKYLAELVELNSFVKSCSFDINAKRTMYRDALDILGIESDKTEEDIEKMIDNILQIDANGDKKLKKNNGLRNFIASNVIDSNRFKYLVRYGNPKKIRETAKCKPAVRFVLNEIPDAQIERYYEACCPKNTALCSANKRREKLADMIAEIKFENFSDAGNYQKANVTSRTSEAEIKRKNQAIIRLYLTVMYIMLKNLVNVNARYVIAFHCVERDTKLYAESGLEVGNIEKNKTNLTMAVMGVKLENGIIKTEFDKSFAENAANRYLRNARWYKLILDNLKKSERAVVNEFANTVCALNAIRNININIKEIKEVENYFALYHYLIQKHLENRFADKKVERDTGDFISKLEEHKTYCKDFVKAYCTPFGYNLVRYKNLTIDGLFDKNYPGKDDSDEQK
test: crRNA (strand 1, pre-loaded); Mg2+; 40 mM Tris-HCl pH 7.5, 150 mM NaCl, 6 mM MgCl2, 1 mM DTT, 0.1% Tween-20, 0.2 mg/ml BSA; 25 C; 10 min per concentration, then washed
assay-context: tags: His6-TwinStrep-SUMO cleaved; N-terminal SNAP kept (SNAP-Surface 488); label: 3' end held by stalled T7 RNA polymerase
Reported pKd by item:
Conceptually, pKd converts a concentration in mol/L into minus its log10.

# annotated cases, reported pKd shown
binder | value-measured
target 1 MT 5'PFS GUG 3'PFS UGU (mixed) RNA 1: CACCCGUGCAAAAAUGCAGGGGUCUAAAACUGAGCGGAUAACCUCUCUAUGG RNA 2: GGGAAUGGAUCCACAUCUACGAAUUCGUGCCAUAGAGAGGUUAUCCGCUCAUGUAGAUCGGAAGAGCACACGU | 7.57
target 3 A5G,C6U (mixed) RNA 1: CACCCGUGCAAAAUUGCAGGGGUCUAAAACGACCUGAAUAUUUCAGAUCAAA RNA 2: GGGAAUGGAUCCACAUCUACGAAUUCGUUUUUGAUCUGAAAUAUUUGGGUCUGCAGAUCGGAAGAGCACACGU | 7.94
target 2 MT 5'PFS UGA 3'PFS AGA (mixed) RNA 1: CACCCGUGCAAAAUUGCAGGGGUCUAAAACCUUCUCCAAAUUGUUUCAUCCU RNA 2: GGGAAUGGAUCCACAUCUACGAAUUCUGAAGGAUGAAACAAUUUGGAGAAGAGAAGAUCGGAAGAGCACACGU | 8.27

What value of measured pKd is listed for target 1 insC 3' of 19,insG 3' of 9 (mixed) RNA 1: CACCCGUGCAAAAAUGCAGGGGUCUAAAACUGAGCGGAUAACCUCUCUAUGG RNA 2: GGGAAUGGAUCCACAUCUACGAAUUCGUACCAUCAGAGAGGUUAGUCCGCUCACCGAGAUCGGAAGAGCACACGU ? 7.36
